# System: barnyardgrass
# Measurement description: Test A pre-/postemergence greenhouse test
# Type: in vivo, Echinochloa crus-galli
# Recorded conditions: Preemergence, 500 g ai/ha; 0 to 100 scale, 0 no effect, 100 complete control
Experimental readout: Barnyardgrass plant response rating

> print(dat)
                                    compound                 experimental.readout  measured.value
 1  CC(C)c1cc[n+]([O-])c(S(=O)(=O)Cc2c(C(F)(F)F)nn(C)c2OC(F)F)c1  Barnyardgrass plant response rating             100
 2  C#CCOc1c(CS(=O)(=O)c2cccc[n+]2[O-])c(C(F)(F)F)nn1C  Barnyardgrass plant response rating             100
 3  Cn1nc(C(F)(F)F)c(C[S+]([O-])c2cc(C3CC3)cc[n+]2[O-])c1OC(F)F (stereo not shown)  Barnyardgrass plant response rating             100
 4  CC(C)c1cc[n+]([O-])c([S+]([O-])Cc2c(C(F)(F)F)nn(C)c2OC(F)F)c1 (stereo not shown)  Barnyardgrass plant response rating             100
 5  CCCc1cc[n+]([O-])c(S(=O)(=O)Cc2c(C(F)(F)F)nn(C)c2OCC(F)(F)F)c1  Barnyardgrass plant response rating              90
 6  CCc1cc[n+]([O-])c(S(=O)(=O)Cc2c(C(F)(F)F)nn(C)c2OC(F)F)c1  Barnyardgrass plant response rating             100
 7  Cc1cc[n+]([O-])c(S(=O)(=O)Cc2c(C(F)(F)C(F)(F)F)nn(C)c2OCC(F)(F)F)c1  Barnyardgrass plant response rating             100
 8  Cn1nc(C(F)(F)F)c(CS(=O)(=O)c2cc(C3CC3)cc[n+]2[O-])c1OCC(F)(F)F  Barnyardgrass plant response rating              90
 9  Cn1nc(C(F)(F)F)c(C[S+]([O-])c2cc(C3CC3)cc[n+]2[O-])c1OCC(F)(F)F (stereo not shown)  Barnyardgrass plant response rating             100
10  Cn1nc(C(F)(F)F)c(CS(=O)(=O)c2ccc(F)c[n+]2[O-])c1OCC(F)(F)F  Barnyardgrass plant response rating              90

###

# System: Surinam grass
# Measurement description: Test F preemergence test
# Assay type: in vivo, Brachiaria decumbens
# Recorded conditions: 16 g ai/ha, preemergence; scale 0 to 100
Form field: Plant response rating, Surinam Grass (one value per entry).
Experimental readout: Plant response rating, Surinam Grass

> print(dat)
                                   compound  measured.value
1  CC(Oc1c(CS(=O)(=O)c2cccc[n+]2[O-])c(C(F)(F)F)nn1C)C(F)(F)F (stereo not drawn)               0
2  Cn1nc(C(F)(F)F)c(C[S+]([O-])c2ccc(Cl)c[n+]2[O-])c1OCC(F)(F)F (racemic)              60
3  Cc1cc[n+]([O-])c(S(=O)(=O)Cc2c(C(F)(F)F)nn(C)c2OC(F)F)c1               0
4  CCn1nc(C(F)(F)F)c(C[S+]([O-])c2cc(C)cc[n+]2[O-])c1OCC(F)(F)F (racemic)               0
5  CC(Oc1c(C[S+]([O-])c2ccc(Cl)c[n+]2[O-])c(C(F)(F)F)nn1C)C(F)(F)F (stereo not drawn)              65
6  Cc1cc[n+]([O-])c([S+]([O-])Cc2c(C(F)(F)F)nn(C)c2Cl)c1 (racemic)               0
